target: Rap guanine nucleotide exchange factor 3 (Homo sapiens) (UniProt O95398); assay: Confirmatory qHTS for antagonist of cAMP-regulated guanine nucleotide exchange factor 3 (EPAC1) (AID 1645880); conditions: EPAC1 Rap1B-BODIPY-GDP exchange, fluorescence; also: nearly all actives have a fitted effect of over 55% in size
Sequence (O95398 whole entry, looked up): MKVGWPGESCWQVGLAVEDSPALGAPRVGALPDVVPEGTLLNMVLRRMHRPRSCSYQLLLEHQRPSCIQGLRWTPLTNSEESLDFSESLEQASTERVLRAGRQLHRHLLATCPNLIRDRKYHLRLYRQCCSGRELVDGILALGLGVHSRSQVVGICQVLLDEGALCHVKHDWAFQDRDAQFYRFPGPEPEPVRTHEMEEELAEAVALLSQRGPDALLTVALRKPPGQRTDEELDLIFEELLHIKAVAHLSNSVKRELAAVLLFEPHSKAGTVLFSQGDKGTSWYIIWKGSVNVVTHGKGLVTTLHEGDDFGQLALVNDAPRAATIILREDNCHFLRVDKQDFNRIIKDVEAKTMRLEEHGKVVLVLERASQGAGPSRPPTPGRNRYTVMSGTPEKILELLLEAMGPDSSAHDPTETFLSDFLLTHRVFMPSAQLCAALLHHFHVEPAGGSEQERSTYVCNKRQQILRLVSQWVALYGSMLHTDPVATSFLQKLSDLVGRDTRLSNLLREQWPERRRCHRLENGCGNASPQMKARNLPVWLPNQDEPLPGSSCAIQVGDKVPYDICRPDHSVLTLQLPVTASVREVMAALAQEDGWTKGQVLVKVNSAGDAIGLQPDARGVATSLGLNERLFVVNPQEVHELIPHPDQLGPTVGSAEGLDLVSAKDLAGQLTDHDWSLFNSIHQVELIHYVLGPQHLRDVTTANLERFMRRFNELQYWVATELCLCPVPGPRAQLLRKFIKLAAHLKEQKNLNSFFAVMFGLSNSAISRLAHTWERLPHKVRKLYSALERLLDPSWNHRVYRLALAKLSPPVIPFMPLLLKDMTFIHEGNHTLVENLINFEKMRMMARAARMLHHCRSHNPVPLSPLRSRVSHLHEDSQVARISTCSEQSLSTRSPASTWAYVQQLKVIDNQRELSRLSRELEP
Records with an inconclusive call do not appear. Activity calls are given as the source filed them. Calls follow the shape of the dose curve; as a rule, active = well fitted inhibition curve with a large enough effect; inconclusive = small, poorly fitted or top-dose-only effect; inactive = no such curve, though single readings can be large or run the other way.
One label from this list, please: 1 = active, -1 = inactive

// below: answered compounds
• O=C(COc1ccccc1Br)Nc1ccccc1C(F)(F)F = -1
• CCN(CC)c1ccc2cc(S(=O)(=O)c3ccc(Cl)cc3)c(=O)oc2c1 = -1
• CCOC(=O)C1=C(C)N=c2s/c(=C\c3ccc(OCC(=O)O)cc3)c(=O)n2C1c1ccc(OC(C)C)cc1 (stereo unspecified) = 1
• CCOc1nc(-c2ccccc2)c2cc(C)ccc2n1 = -1
• CCCOc1ccccc1NC(=O)c1c(-c2ccccc2)noc1C = -1

Kindly consider the entry below.
Which outcome was entered for the compound O=S(=O)(Nc1nc2ccccc2nc1Nc1cccc(S(=O)(=O)N2CCCCC2)c1)c1ccccc1 in this test?
1

---

target: Nicotinamide N-methyltransferase (Homo sapiens) (UniProt P40261); assay: Confirmatory Screen for Target Class Profiling of Small Molecule Inhibitors of Methyltransferases (AID 1745852); settings: MTase-Glo luminescence, SAH detection, recombinant enzyme; measured here: NNMT max response; stronger effect = lower value
Sequence (P40261 whole entry, looked up): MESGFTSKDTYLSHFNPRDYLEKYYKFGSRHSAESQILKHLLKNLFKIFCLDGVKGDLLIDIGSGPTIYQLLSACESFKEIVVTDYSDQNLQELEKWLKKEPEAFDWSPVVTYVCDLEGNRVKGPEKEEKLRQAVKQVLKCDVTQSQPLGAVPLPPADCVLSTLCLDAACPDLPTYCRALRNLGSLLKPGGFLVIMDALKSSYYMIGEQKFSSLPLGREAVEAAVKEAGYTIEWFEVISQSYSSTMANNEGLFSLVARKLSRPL
Would you mind telling me the reported activity of each entry?
One number for each entry, in %.

Reference set, count: 9
* CCCn1c(=O)c2cc(F)ccc2n2c(SCc3c(F)cccc3Cl)nnc12 | -24.8
* Cc1noc(C)c1-c1cnc(Nc2ccncc2)c2c1CCO2 | -6.04
* CN(Cc1ccccc1)C1(C(=O)NC2CCC(O)CC2)Cc2ccccc2C1 (stereo not given) | 7.08
* CCCC1c2cccn2CCN1C(=O)NC1(CC(=O)OCC)CCCCC1 (stereo not given) | -5.96
* COc1ccc(OC)c(CN2CCNc3cc(-c4ccnc(C)c4)ncc3C2)c1 | -5.07
* COc1cccc([C@H]2Nc3ccc(S(=O)(=O)Nc4ccc(C)cc4C)cc3[C@H]3C=CC[C@H]32)c1 | -21.2
* Cc1ccc(C(=O)O)c2c1N[C@@H](c1ccc(Cl)cc1)[C@H]1CC=C[C@@H]21 | 0.978
* CC1(C(=O)NC2CCCCC2)Cn2c(c(-n3cccc3)c3ccccc32)C(=O)N1Cc1ccccn1 (stereo not given) | -45.4
* Cc1cccc(N2CCN(C(=O)c3ccc4c(=O)[nH]c5c(C(=O)NC(C)C)sc(=S)n5c4c3)CC2)c1C | -76.7

Report activity for COc1ccc(OC)c(NC(=O)c2sc(=S)n3c2[nH]c(=O)c2ccc(Cl)cc23)c1
-72.9

---

target: Rap guanine nucleotide exchange factor 4 (Homo sapiens) (UniProt Q8WZA2); assay: Confirmatory qHTS for agonist of cAMP-regulated guanine nucleotide exchange factor 4 (EPAC2) (AID 1645884); settings: EPAC2 GEF activity, Rap1B-BODIPY-GDP fluorescence; series mostly up to 154 µM;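 also: nucleotide exchange releases bodipy-GDP from Rap1 and this lowers its fluorescence; % is scaled to controls: 0 for no effect and ±100 for the full control effect; nearly all actives have a fitted effect of over 65% in size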
Sequence (Q8WZA2 whole entry, looked up): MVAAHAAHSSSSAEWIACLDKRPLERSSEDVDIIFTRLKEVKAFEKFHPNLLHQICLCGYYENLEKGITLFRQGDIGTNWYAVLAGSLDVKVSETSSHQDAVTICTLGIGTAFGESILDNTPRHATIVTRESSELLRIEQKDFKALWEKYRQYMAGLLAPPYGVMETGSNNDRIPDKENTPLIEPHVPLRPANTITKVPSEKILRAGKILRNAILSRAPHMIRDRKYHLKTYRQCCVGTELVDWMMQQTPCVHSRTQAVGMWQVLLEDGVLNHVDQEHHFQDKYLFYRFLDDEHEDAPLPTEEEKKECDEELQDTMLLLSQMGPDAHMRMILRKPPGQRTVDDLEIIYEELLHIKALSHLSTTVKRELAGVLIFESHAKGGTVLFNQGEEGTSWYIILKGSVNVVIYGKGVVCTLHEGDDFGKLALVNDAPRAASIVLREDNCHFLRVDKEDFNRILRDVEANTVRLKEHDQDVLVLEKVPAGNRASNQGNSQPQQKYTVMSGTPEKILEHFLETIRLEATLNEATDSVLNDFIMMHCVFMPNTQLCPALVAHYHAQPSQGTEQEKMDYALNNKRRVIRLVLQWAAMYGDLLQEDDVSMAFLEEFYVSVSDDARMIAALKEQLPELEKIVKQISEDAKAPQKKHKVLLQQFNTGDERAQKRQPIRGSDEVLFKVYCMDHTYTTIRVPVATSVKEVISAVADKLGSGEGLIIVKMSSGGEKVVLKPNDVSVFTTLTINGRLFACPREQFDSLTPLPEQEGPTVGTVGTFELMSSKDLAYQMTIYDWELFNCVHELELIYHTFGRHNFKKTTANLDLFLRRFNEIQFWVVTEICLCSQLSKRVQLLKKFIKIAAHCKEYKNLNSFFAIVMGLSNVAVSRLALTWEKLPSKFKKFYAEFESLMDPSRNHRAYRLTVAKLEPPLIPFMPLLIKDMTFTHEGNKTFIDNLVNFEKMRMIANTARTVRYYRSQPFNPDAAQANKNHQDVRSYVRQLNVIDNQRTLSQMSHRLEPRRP
Results filed as inconclusive are left out. Calls of active or inactive are those of the source. Calls come from the whole dose curve; as a rule, active = well fitted activation curve with a large enough effect; inconclusive = small, poorly fitted or top-dose-only effect; inactive = no such curve, though single readings can be large or run the other way.
EXPERIMENTAL_ENDPOINT: activation

• O=C1C(=O)c2cccnc2-c2ncccc21 = inactive
• CC(=O)N1CCC[C@H]1C(=O)NCC1Cc2cc(-c3cccc(OC(F)(F)F)c3)ccc2O1 (stereo partly specified) = inactive
• CCCCOc1ccc(NS(=O)(=O)c2ccc(-n3cnnn3)cc2)cc1 = inactive

---

target: Rap guanine nucleotide exchange factor 3 (Homo sapiens) (UniProt O95398); test: Confirmatory qHTS for agonist of cAMP-regulated guanine nucleotide exchange factor 3 (EPAC1) (AID 1645881); settings: EPAC1 Rap1B BODIPY-GDP exchange fluorescence; series mostly up to 154 µM; also: nearly all actives have a fitted effect of over 75% in size;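 as to activation: EPAC1 catalysed release of BODIPY-GDP from Rap1B seen as fluorescence loss; 100% = effect of cAMP agonist control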
Inconclusive results are not listed. The source made the active and inactive calls. Calls come from the whole dose curve; as a rule, active = well fitted activation curve with a large enough effect; inconclusive = small, poorly fitted or top-dose-only effect; inactive = no such curve, though single readings can be large or run the other way.
One label from this list, please: active, inactive

// below: answered compounds
* O=C(N/N=C/c1ccc(Sc2ccccn2)o1)c1cc2ccccc2cc1O | inactive
* O=C1CS(=O)(=O)N(Cc2cccc(F)c2)c2ccc(Br)cc21 | inactive
* CCN1CCN(C2=CC3=CC(=C(C#N)C#N)CCC3CC2)CC1 (stereo unspecified) | active
* CCN1CCc2c(sc(NC(=O)c3ccc(S(=O)(=O)N4CCCCCC4)cc3)c2C(=O)NC)C1 | inactive
* COc1ccc(S(=O)(=O)Nc2cccc(C)c2C)c2cccnc12 | inactive
* N#Cc1c(NC(=O)C2CC=CCC2C(=O)O)sc2c1CCCCCC2 (stereo unspecified) | inactive
* O=C(Nc1cccc(Cl)c1)Nc1ccccc1NS(=O)(=O)c1cccs1 | inactive
* COc1ccc(C(=O)CSc2nnc(-c3ccco3)c(-c3ccco3)n2)cc1 | inactive

Which outcome was entered for the compound COc1ccccc1/C=C1\SC(=S)N(CCC(=O)Nc2ccc(C(=O)O)c(O)c2)C1=O in this test?
inactive

Which outcome was entered for the compound O=C1C(Cc2ccccc2)SC(=Nc2ccccc2)N1c1ccccc1 (stereo unspecified) in this test?
inactive

Which outcome was entered for the compound CCOC(=O)c1cnc2ccc(OC)cc2c1Nc1ccc(N2CCN(C)CC2)cc1 in this test?
inactive

---

biological target: Rap guanine nucleotide exchange factor 3 (Homo sapiens); assay: Counterscreen qHTS for antagonist of cAMP-regulated guanine nucleotide exchange factor 3 (EPAC1) (AID 1645888); conditions: Rap1B-BODIPY-GDP nucleotide exchange, fluorescence; series mostly up to 154 µM;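 also: fluorescence loss as bound BODIPY-GDP is released from Rap1B; % of control where 0% means no effect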
Results filed as inconclusive are left out. Activity calls are given as the source filed them. Calls follow the shape of the dose curve; as a rule, active = well fitted inhibition curve with a large enough effect; inconclusive = small, poorly fitted or top-dose-only effect; inactive = no such curve, though single readings can be large or run the other way.
EXPERIMENTAL_ENDPOINT: activity change, negative = inhibition

Reference set, count: 6
* O=C1C(=O)c2ccc(-c3ccccc3)cc2-c2ccccc21 | inactive
* CCOc1cc(-c2ccc(OC(=O)c3ccccc3)c(OC)c2)cc(=O)c2c(C)oc(C)c12 | inactive
* O=C1C=C(c2ccccc2Oc2ccccc2)C[C@@H](c2ccc3c(c2)OCO3)C1 | inactive
* Cc1ccc(S(=O)(=O)N2[C@@H](c3ccc(F)cc3)C(C(=O)O)=CC[C@H]2c2ccc(C(C)C)cc2)cc1 | inactive
* CN(C)c1ccc(/C=C(\C#N)C(=O)Nc2nc3c(s2)CCN(Cc2ccccc2)C3)cc1 | inactive
* COC(=O)c1cc2occc2n1Cc1cccc(C)c1 | inactive

Provide the reported activity change, negative = inhibition of each entry below, same order.
1. O=C(CN1C(=O)NC2(CCCC2)C1=O)Nc1nc2c(F)cc(F)cc2s1
2. Cc1cc2nc(-c3ccco3)c(Cc3cccc(F)c3)n2c(C)c1Br
3. Cc1cc(C)n(Cc2ccc(C(=O)N/N=C/c3ccc(-c4ccc([N+](=O)[O-])cc4)o3)o2)n1
4. COc1ccc(NC(=O)CN(C)C(=O)c2cc(-c3ccco3)nc3ccccc23)cc1
5. COc1ccc(/C=N\NC(=O)c2cc3c(ccc4ccccc43)o2)cc1O

1. inactive
2. -4.32% [at 30.8 µM] (inactive)
3. inactive
4. inactive
5. 0.0783% [at 30.8 µM] (inactive)

---

Test: qHTS assay for small molecule agonists of retinoid X receptor alpha signaling (AID 588544)
Settings: HEK293T RXRa-UAS-bla, beta-lactamase reporter, 18 h; 530 nm emission
Description: NIH Chemical Genomics Center [NCGC] U.S. Environmental Protection Agency [EPA] National Institutes of Environmental Health Sciences [NIEHS] National Toxicology Program [NTP] NCGC Assay Overview The Retinoid X receptor (RXR), a nuclear hormone receptor is expressed in liver, spleen, placenta, epidermis, central nervous system. […]
Inconclusive results are not listed.
EXPERIMENTAL_ENDPOINT: max response (%)
Give bare numbers, in %.

Reference set, count: 6
* O=S(=O)(O)c1ccccc1 | 0.332
* O=C(/C=C/c1ccc(O)c(O)c1)O[C@@H](C(=O)O)[C@@H](OC(=O)/C=C/c1ccc(O)c(O)c1)C(=O)O | -0.499
* C=CC(C)(CCC=C(C)C)OC(C)=O (stereo not drawn) | -5.34
* C/C=C\c1ccc(OC)cc1 | -9.52
* C=CC(=C)CCC=C(C)C | 1.9
* C1OCOCO1 | -5.21

Provide the reported max response of each entry below, same order.
1. c1ccc2scnc2c1
2. O=C1c2ccccc2C(=O)C1c1ccc2ccccc2n1

[-4.98, 16.7]

---

biological target: Phospholipid hydroperoxide glutathione peroxidase GPX4 (Homo sapiens) (UniProt P36969); experiment: Primary qHTS Assay for Inhibitors of Recombinant Selenoprotein Glutathione Peroxidase 4 (GPX4) (AID 1845192); settings: recombinant GPX4, GR-coupled NADPH fluorescence, 15 min; series mostly up to 50 µM; also: nearly all actives have a fitted effect of over 65% in size
Sequence (P36969 whole entry, looked up): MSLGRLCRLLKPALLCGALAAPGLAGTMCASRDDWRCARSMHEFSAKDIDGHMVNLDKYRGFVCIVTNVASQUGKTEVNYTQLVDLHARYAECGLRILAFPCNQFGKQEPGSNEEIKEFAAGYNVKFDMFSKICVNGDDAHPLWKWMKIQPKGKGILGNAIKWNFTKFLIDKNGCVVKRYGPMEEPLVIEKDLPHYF
Results filed as inconclusive are left out. Activity calls are given as the source filed them. Calls come from the whole dose curve; as a rule, active = well fitted inhibition curve with a large enough effect; inconclusive = small, poorly fitted or top-dose-only effect; inactive = flat fitted curve, though single readings scatter.
One label from this list, please: class 1 for active, class 0 for inactive

// below: answered compounds
* CCC(C)CC(C)CCCCCCCCC(=O)N[C@H]1C[C@@H](O)[C@@H](NCCN)NC(=O)[C@@H]2[C@@H](O)CCN2C(=O)[C@H]([C@H](O)CCN)NC(=O)[C@H]([C@@H](O)[C@H](O)c2ccc(O)cc2)NC(=O)[C@@H]2C[C@@H](O)CN2C(=O)[C@H]([C@@H](C)O)NC1=O (some centres not stated) | class 0
* CCCC[C@H](C)C[C@H](O)/C=C/[C@H]1[C@H](O)CC(=O)[C@@H]1CCCC/C=C/C(=O)O | class 0
* Cc1cc(O)ccc1C(C)(C)C | class 0

Which outcome was entered for the compound CCCCC(CC)COC(=O)c1ccc(Nc2nc(Nc3ccc(C(=O)OCC(CC)CCCC)cc3)nc(Nc3ccc(C(=O)OCC(CC)CCCC)cc3)n2)cc1 (configuration not stated) in this test?
class 0

Which outcome was entered for the compound Cc1c(OCC(F)(F)F)ccnc1C[S@@](=O)c1nc2ccccc2[nH]1 in this test?
class 1

Which outcome was entered for the compound [Mn].[O]=[Mn][OH].[O]=[Mn][OH] in this test?
class 0

Which outcome was entered for the compound CC(C)CN(C[C@@H](O)[C@H](Cc1ccccc1)NC(=O)O[C@H]1CCOC1)S(=O)(=O)c1ccc(N)cc1 in this test?
class 0
